molecular target: human RXFP1 (Homo sapiens, UniProt Q9HBX9); test: hRXFP1 HEK293 cAMP assay (HTRF); conditions: HEK293 cells stably expressing human RXFP1, 30 min at room temperature
READOUT TYPE: EC50 (nM)

1) COc1ccc(C#CCO)cc1C(=O)N[C@@H]1C2CCC(/C2=C/C(F)(F)F)[C@@H]1C(=O)Nc1ccc(F)c(C(F)(F)F)c1 (stereo partly drawn) [Example 68]    144
2) COc1ccc(CN2CCOCC2)cc1C(=O)N[C@@H]1C2CCC(/C2=C/C(F)(F)F)[C@@H]1C(=O)Nc1ccc(F)c(C(F)(F)F)c1 (stereo partly drawn) [Example 13]    625

a. COc1ccc(C2=CC(=O)CCC2)cc1C(=O)N[C@@H]1C2CCC(/C2=C/C(F)(F)F)[C@@H]1C(=O)Nc1ccc(F)c(C(F)(F)F)c1 (stereo partly drawn) [Example 34]
b. COc1ccc(CCCNC2CCC2)cc1C(=O)N[C@@H]1C2CCC(/C2=C/C(F)(F)F)[C@@H]1C(=O)Nc1ccc(F)c(C(F)(F)F)c1 (stereo partly drawn) [Example 122]
c. COc1ccc(S(N)(=O)=O)cc1C(=O)N[C@@H]1C2CCC(C2=C(C)C)[C@@H]1C(=O)Nc1ccc(F)c(C(F)(F)F)c1 (stereo partly drawn) [Example 207]
d. COc1ccc(CCC(C)(C)O)cc1C(=O)NC1C2CCC(/C2=C/C2CCOC2)[C@@H]1C(=O)Nc1ccc(F)c(C(F)(F)F)c1 (stereo partly drawn) [Example 169]
Q) Order the records so the highest EC50 appears first and the lowest last. Submit the labels in the order that the ranking request calls for.
A) b, c, a, d

====

Biological target: human RXFP1 (Homo sapiens, UniProt Q9HBX9)
Sequence (Q9HBX9 1-757): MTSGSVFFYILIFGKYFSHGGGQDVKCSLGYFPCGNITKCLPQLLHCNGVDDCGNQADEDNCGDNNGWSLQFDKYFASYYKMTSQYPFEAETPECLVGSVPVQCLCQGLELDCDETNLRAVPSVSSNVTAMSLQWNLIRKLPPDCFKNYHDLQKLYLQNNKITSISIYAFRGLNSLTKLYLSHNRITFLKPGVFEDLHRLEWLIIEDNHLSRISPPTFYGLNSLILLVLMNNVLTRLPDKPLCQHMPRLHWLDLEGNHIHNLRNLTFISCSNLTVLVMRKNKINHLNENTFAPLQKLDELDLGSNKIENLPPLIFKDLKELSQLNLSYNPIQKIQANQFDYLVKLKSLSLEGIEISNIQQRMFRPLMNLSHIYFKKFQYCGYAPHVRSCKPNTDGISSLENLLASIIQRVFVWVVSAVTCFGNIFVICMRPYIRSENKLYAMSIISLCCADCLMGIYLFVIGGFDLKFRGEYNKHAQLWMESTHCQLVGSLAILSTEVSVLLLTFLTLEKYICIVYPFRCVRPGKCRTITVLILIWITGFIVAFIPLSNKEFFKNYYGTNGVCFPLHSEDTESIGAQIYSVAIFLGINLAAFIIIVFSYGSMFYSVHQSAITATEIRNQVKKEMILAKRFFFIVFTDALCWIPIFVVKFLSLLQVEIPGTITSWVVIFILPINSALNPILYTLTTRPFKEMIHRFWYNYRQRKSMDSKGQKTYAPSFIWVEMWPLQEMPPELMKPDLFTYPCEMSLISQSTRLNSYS
Assay: hRXFP1 HEK293 cAMP assay (HTRF)
Details: HEK293 cells stably expressing human RXFP1, 30 min at room temperature
READOUT TYPE: EC50 (nM)

Answered examples (2):
1. COc1ccc(S(=O)(=O)N2CC3COCC3C2)cc1C(=O)NC1C2CCC(/C2=C/C(F)(F)F)[C@@H]1C(=O)Nc1ccc(F)c(C(F)(F)F)c1 (some centres unmarked) [Example 205]    611
2. COc1ccc(/C=C/C(=O)N2CCCC2)cc1C(=O)N[C@H]1[C@@H](C(=O)Nc2ccc(F)c(C(F)(F)F)c2)[C@H]2CC[C@@H]1/C2=C\C(F)(F)F [Example 303]    77.9

I. COc1ccc([C@H]2C[C@H](O)C2)cc1C(=O)NC1C2CCC(/C2=C/C(F)(F)F)[C@@H]1C(=O)Nc1ccc(F)c(C(F)(F)F)c1 (some centres unmarked) [Example 145]
II. COc1ccc(S(=O)(=O)N2CCO[C@@H](CO)C2)cc1C(=O)NC1C2CCC(/C2=C/C(F)(F)F)[C@@H]1C(=O)Nc1ccc(F)c(C(F)(F)F)c1 (some centres unmarked) [Example 200]
III. COc1ccc(C2CCCC(O)C2)cc1C(=O)N[C@@H]1C2CCC(/C2=C/C(F)(F)F)[C@@H]1C(=O)Nc1ccc(F)c(C(F)(F)F)c1 (single isomer, unassigned) [Example 35]
Q) Returns the items ordered by EC50, from maximum to minimum. Answer by listing the labels in the order asked for.
A) III, II, I
(III: 667 nM, II: 203 nM, I: 84 nM)
